Values were extracted from ChEMBL document CHEMBL3525946.

test: Total plasma concentration in wild type Sprague-Dawley rat expressing Abcb1a at 6 mg/kg/day administered through continuous minipump treatment for 3 days by UPLC-MS analysis; assay type: ADME, organism-based; settings: other: continuous minipump

COMPOUND: O=C1CCc2ccc(OCCCCN3CCN(c4cccc(Cl)c4Cl)CC3)cc2N1 [ARIPIPRAZOLE]
concentration at 72 h (ng/mL): 18

###

assay: Total plasma concentration in mdr1a-deficient Sprague-Dawley rat at 6 mg/kg/day administered through continuous minipump treatment for 3 days by UPLC-MS analysis; assay type: ADME, organism-based; conditions: other: continuous minipump
MEASURED METRIC: concentration at 72 h (ng/mL)

SMILES NOTATION: O=C1CCc2ccc(OCCCCN3CCN(c4cccc(Cl)c4Cl)CC3)cc2N1
MEASURED RESULT: 22

###

assay: Total plasma concentration in wild type Sprague-Dawley rat expressing Abcb1a treated with venlafaxine at 9 mg/kg/day administered through continuous minipump treatment for 3 days by UPLC-MS analysis; format: ADME, organism-based; details: other: continuous minipump

COMPOUND: CN(C)CC(c1ccc(O)cc1)C1(O)CCCCC1 (configuration not stated)
concentration at 72 h (ng/mL): 4.5
--
COMPOUND: CNCC(c1ccc(OC)cc1)C1(O)CCCCC1 (configuration not stated)
concentration at 72 h (ng/mL): 6.8

###

Recorded fraction unbound at 5 h, 1 µM, one value per entry.
assay: Percentage unbound in Crl:NMRI(Han) mouse brain at 1 uM after 5 hrs by equilibrium dialysis method; assay type: ADME, tissue-based
MEASURED METRIC: fraction unbound at 5 h, 1 µM

COMPOUND: CNCC(c1ccc(OC)cc1)C1(O)CCCCC1 (stereo unspecified) [N-DESMETHYLVENLAFAXINE]
MEASURED RESULT: 0.16
//
COMPOUND: Cc1nc2n(c(=O)c1CCN1CCC(c3noc4cc(F)ccc34)CC1)CCCC2 [RISPERIDONE]
MEASURED RESULT: 0.058
//
COMPOUND: O=C1CCc2ccc(OCCCCN3CCN(c4cccc(Cl)c4Cl)CC3)cc2N1 [ARIPIPRAZOLE]
MEASURED RESULT: 0.001
//
COMPOUND: COc1ccc(C(CN(C)C)C2(O)CCCCC2)cc1.Cl (stereo unspecified) [VENLAFAXINE HYDROCHLORIDE]
MEASURED RESULT: 0.18
//
COMPOUND: CN(C)CC(c1ccc(O)cc1)C1(O)CCCCC1 (stereo unspecified) [DESVENLAFAXINE]
MEASURED RESULT: 0.45
//
COMPOUND: Br.CN(C)CCCC1(c2ccc(F)cc2)OCc2cc(C#N)ccc21 (stereo unspecified) [CITALOPRAM HYDROBROMIDE]
MEASURED RESULT: 0.035

###

assay: Total plasma concentration in wild type Crl:CF1 mouse expressing Abcb1a mutant treated with venlafaxine at 12 mg/kg/day administered through continuous minipump treatment for 3 days by UPLC-MS analysis; type: ADME, organism-based; conditions: other: continuous minipump
Recorded concentration at 72 h, one value per entry.

COMPOUND: CN(C)CC(c1ccc(O)cc1)C1(O)CCCCC1 (configuration not stated) [DESVENLAFAXINE]
concentration at 72 h (ng/mL): 5.7
//
COMPOUND: CNCC(c1ccc(OC)cc1)C1(O)CCCCC1 (configuration not stated) [N-DESMETHYLVENLAFAXINE]
concentration at 72 h (ng/mL): 17
